Where do the numbers come from? From paper PMC4622456.

- TARGET_ENTITY: recombinant human IL23 (human, UniProt Q9NPF7;P29460)
- Sequence (Q9NPF7 20-189, chain 1 of 2): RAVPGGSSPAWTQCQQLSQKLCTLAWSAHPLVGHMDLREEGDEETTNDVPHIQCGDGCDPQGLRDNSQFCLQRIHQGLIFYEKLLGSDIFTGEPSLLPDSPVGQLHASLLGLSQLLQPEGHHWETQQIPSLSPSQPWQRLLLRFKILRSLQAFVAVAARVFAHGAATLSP
- Sequence (P29460 23-328, chain 2 of 2): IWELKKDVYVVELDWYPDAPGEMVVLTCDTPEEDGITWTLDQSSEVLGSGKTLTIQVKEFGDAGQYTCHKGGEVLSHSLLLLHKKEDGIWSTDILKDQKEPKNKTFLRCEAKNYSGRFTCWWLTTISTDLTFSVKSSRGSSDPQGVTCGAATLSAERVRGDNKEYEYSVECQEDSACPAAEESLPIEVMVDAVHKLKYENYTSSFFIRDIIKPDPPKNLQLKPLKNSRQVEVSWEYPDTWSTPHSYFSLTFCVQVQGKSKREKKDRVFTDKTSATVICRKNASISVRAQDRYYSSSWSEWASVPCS
- TEST: BLI
ENDPOINT_NAME: Kd (nM)
Record the value in nM, omitting the unit from your answer.

Inquiry: Quick check: Kd of 26F7 (antibody, V domains shown) VH: EVQLQQSGPELVKPGASVKISCKASGYTFTDYYMNWVRQSHGESLEWIGDFNHNNDVITYNPKFKGKVTLTVEKSSTTAYMELRSLSSEDSAVYYCARGLRGYYAMDYWGQGTSVTVSS VL: DIVLTQSPASLAVSLGQRATISCRASKSVRFSDYFYMHWYQQKPGQPPKLLIYLASNLESGVPARFSGSGSGTDFTLNIHPVEEEDAATYYCQNSRELPYTFGGGTKLEIK ?
Reply text: 0.028
